Cited source for all entries: the supplement of paper PMC9170038

Test system: MS2 coat protein
Assay: apparent KD of MS2 coat protein; higher = weaker reporter binding
Settings: Eterna round: R107; input ligand: theophylline 20 uM
Reported apparent KD of MS2 coat protein values follow for various sequences
Give just the numeric value; nM need not be written.

Before answering, review these 5 worked examples.
What does the data say about its apparent KD of MS2 coat protein? Entry: GUUAAUAGAAAACUAUUAACAGUGGGUGAACGAGGACCGGUACGGCCGCCACUCGGACAUGAGGAUCACCCAUGUCCAUGUGAAA [AstrosExyTryA#5]
16.9

What does the data say about its apparent KD of MS2 coat protein? Entry: AUAACAUGAGGAUCACCCAUGUAAGCAGAUACCAGCUAGGAAACUAGCCCUUGGCAGCUGCAUAGUGAUCCAUAUAUCUGCUAAU [(M1)-(M2)-(T1)-(T2)-(M)'-(T)'_Design8]
80.5

What does the data say about its apparent KD of MS2 coat protein? Entry: CCGGCCAGGGCGGCCGCCACUGAACGUGGAAGAAAGAAAACAUGAGGAUCACCCAUGUAAAUCCUCAGGACCGGGCCAGGGCCGG
71

What does the data say about its apparent KD of MS2 coat protein? Entry: GGACUAACCAGAAGGAGCGACACGCAGAAACUGCAAUUUCCUCCACACGAGGAUCACCCGUGUCAGGUAGGUCGCUGGUUAGUCG
37.3

What does the data say about its apparent KD of MS2 coat protein? Entry: AACUUCGCAUAGGAAAACUAUGUGAAGAAUCGAGGACCGGUACGGCCGCCACUCGUCCUCAACAUGAGGAUCACCCAUGUAAUAA [Mat - Exclusion - Trytophan A - D4]
25.4

Now consider the entry below.
What does the data say about its apparent KD of MS2 coat protein? Entry: AAAUAAAUACAUGAGGAUCACCCAUGUGAAGGAGCGCGCGUUAGCGCAGGUAGGUCGCACAUGAACUCCAAAGUGCGAAAGCACA [MAT - Exclusion Arginine A - Mod of Eli - D9]
23.1

* * *

Test system: MS2 coat protein
Test: apparent KD of MS2 coat protein; designed switch direction (-1 OFF switch, 1 ON switch): -1; higher = weaker reporter binding
Conditions: input ligand: none
recorded metric: apparent KD of MS2 coat protein (nM)
Give just the numeric value; nM need not be written.

GET /values?readout=apparent KD of MS2 coat protein&system=MS2 coat protein&item= GUGUUGCGAGGAUAUAUAAGGGUAUGUUCUUGAGGUAUGGAACAUGAGGAUCACCCAUGUAGAAGGUGCAUAAC [JR_Ex2_Sub045] (Eterna round: R97, puzzle: Exclusion 2)
247

GET /values?readout=apparent KD of MS2 coat protein&system=MS2 coat protein&item= GCAGCUAGUUCAGGAUAUCAGCACGUUUAGUGCUGAGAAGGGAACAUGAGGAUCACCCAUGUGAUCAAUGCUGCAAUUUUAAUU [ENG1/12-A2] (Eterna round: R96, puzzle: Exclusion NG 1)
717

GET /values?readout=apparent KD of MS2 coat protein&system=MS2 coat protein&item= AACUCUGAGGAGGAUAUACAGUGCGAAAGGACAGUAGAAGGCUUCACAUGAGGAUCACCCAUGUCGAAUAGUGA [EX6 #78] (Eterna round: R97, puzzle: Exclusion 6)
51.9

GET /values?readout=apparent KD of MS2 coat protein&system=MS2 coat protein&item= GUGGGACAUGAGGAUCACCCAUGUCAGGAUAUUUGGGCGAGAUUCGAUCUCGUUAGCCGGAGAAGGGACGUAUG [Eternabot (L2) Solution 47] (Eterna round: R97, puzzle: Exclusion 1)
25

Now consider the entry below.
GET /values?readout=apparent KD of MS2 coat protein&system=MS2 coat protein&item= CCGCAAAUGCAGGAUAUCGUAUCGGAAACGAUACGAGAAGGGUAAACAUGAGGAUCACCCAUGUUCCUUAACGG [Mat - Exclusion 6 - Eli Mod - D98] (Eterna round: R96, puzzle: Exclusion 6)
18.1
